Assay: Qualitative solubility in water
Type: physicochemical
Settings: at RT
Text: No signs of acetic acid were observed.
Non-standard residues stand in square brackets, D forms with d. Residues, ends and D or L forms follow the SMILES beside them.
quantity-measured: solubility

[[record]]
compound = "N=C(N)NCCC[C@@H](NC(=O)[C@@H](N)Cc1ccccc1)C(=O)N[C@@H](Cc1ccccc1)C(=O)N[C@@H](CCCCN)C(N)=O [Tosylate] (H-F[dR]FK-NH2)"
value_observed = "> 100 mg/mL"

